B1: Caulobacter ParB omega fusion; a variant is named by its letters at X, in order, B8GW30 (parent)
chain: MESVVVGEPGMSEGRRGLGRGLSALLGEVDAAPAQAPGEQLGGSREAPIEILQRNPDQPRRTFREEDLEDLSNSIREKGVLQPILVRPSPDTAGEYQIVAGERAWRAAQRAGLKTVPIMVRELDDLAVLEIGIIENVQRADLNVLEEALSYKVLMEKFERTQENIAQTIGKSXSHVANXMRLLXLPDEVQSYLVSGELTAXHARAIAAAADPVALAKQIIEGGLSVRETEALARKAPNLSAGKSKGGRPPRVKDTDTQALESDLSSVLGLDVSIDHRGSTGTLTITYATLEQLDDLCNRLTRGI

Variants of: B1
Experiment: one-hybrid fitness for binding NBS DNA (the Noc-binding site; scaled: cognate 1, non-cognate 0); higher = stronger binding
Settings: with NBS DNA site
Over roughly 81,000 sequences, “one-hybrid fitness for binding NBS DNA” has its median near -0.1; the highest 2% begin near 0.36. Shown is part of a subset that was picked to be rich in the highest values.
Quick list: one-hybrid fitness for binding NBS DNA per entry.

Form field: reported one-hybrid fitness for binding NBS DNA of CCKT ≤ 0.2
